experimentDescription: amyloid nucleation score (Sup35N fusion, yeast selection) (log enrichment); library NNK1; higher = more nucleation; inactive = no reads after selection;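 further: zero at mode of non-aggregating sequences after 7 days selection at 30°C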
The sequences listed here are annotated with their amyloid nucleation score.
endpointLabel: amyloid nucleation score

>  <sequenceEntry>
GVMYLKRKLRCYMGINYVFH

>  <endpointLabel>
amyloid nucleation score

>  <numericValue>
0.074

$$$$
>  <sequenceEntry>
LDTRSRSYVWSDLLRKAKAK

>  <endpointLabel>
amyloid nucleation score

>  <numericValue>
0.795

$$$$
>  <sequenceEntry>
LVLVRFITPVDLAVMNGRLW

>  <endpointLabel>
amyloid nucleation score

>  <numericValue>
-0.927

$$$$
>  <sequenceEntry>
LFRLIAFWDWLYSWNRFFGW

>  <endpointLabel>
amyloid nucleation score

>  <numericValue>
0.481

$$$$
>  <sequenceEntry>
KKGVIGKG

>  <endpointLabel>
amyloid nucleation score

>  <numericValue>
-2.31

$$$$
>  <sequenceEntry>
LWFLIFSSKADAKVDRRILL

>  <endpointLabel>
amyloid nucleation score

>  <numericValue>
0.041

$$$$
>  <sequenceEntry>
CSSALGIMKWTRIYVCRGRG

>  <endpointLabel>
amyloid nucleation score

>  <numericValue>
1.6

$$$$
>  <sequenceEntry>
IKILLNWHV

>  <endpointLabel>
amyloid nucleation score

>  <numericValue>
-0.628

$$$$
>  <sequenceEntry>
YNCMEYSDARHKSSTVRLHY

>  <endpointLabel>
amyloid nucleation score

>  <numericValue>
-0.253

$$$$
>  <sequenceEntry>
IYRFSCETHIFQYSRQVLFG

>  <endpointLabel>
amyloid nucleation score

>  <numericValue>
0.786

$$$$
>  <sequenceEntry>
ISLSSGLALKPS

>  <endpointLabel>
amyloid nucleation score

>  <numericValue>
1.41

$$$$
>  <sequenceEntry>
YIVAVEHLLCSVRSYGHGMG

>  <endpointLabel>
amyloid nucleation score

>  <numericValue>
0.724

$$$$
>  <sequenceEntry>
AYCRTNTNLRVLRIWNK

>  <endpointLabel>
amyloid nucleation score

>  <numericValue>
-0.611

$$$$
>  <sequenceEntry>
SSIRNVTAICINGSRLINVL

>  <endpointLabel>
amyloid nucleation score

>  <numericValue>
1.1

$$$$
>  <sequenceEntry>
HFSNIDNARNCSDSYWRYGI

>  <endpointLabel>
amyloid nucleation score

>  <numericValue>
0.168

$$$$
>  <sequenceEntry>
PHYRTSFVKHPLL

>  <endpointLabel>
amyloid nucleation score

>  <numericValue>
0.73

$$$$
>  <sequenceEntry>
LSYKIKDT

>  <endpointLabel>
amyloid nucleation score

>  <numericValue>
0.626

$$$$
>  <sequenceEntry>
LFYSNMIVTVSRSVVRMRGA

>  <endpointLabel>
amyloid nucleation score

>  <numericValue>
0.659

$$$$
>  <sequenceEntry>
DWNYKFMGRRLEHMCQVLM

>  <endpointLabel>
amyloid nucleation score

>  <numericValue>
-1.03

$$$$
>  <sequenceEntry>
GLYLDFGYSGCYGKKL

>  <endpointLabel>
amyloid nucleation score

>  <numericValue>
5.67

$$$$
>  <sequenceEntry>
LDFRGMALENKVLDFRVCSV

>  <endpointLabel>
amyloid nucleation score

>  <numericValue>
0.658

$$$$
>  <sequenceEntry>
RCEGYFSVDVRGYSMLEIPG

>  <endpointLabel>
amyloid nucleation score

>  <numericValue>
-0.365

$$$$
>  <sequenceEntry>
FRIVGSRMFVLLLCYVSSGR

>  <endpointLabel>
amyloid nucleation score

>  <numericValue>
0.241

$$$$
>  <sequenceEntry>
HLVRRLYSKWMQT

>  <endpointLabel>
amyloid nucleation score

>  <numericValue>
-0.711

$$$$
>  <sequenceEntry>
LTNIYLVRMT

>  <endpointLabel>
amyloid nucleation score

>  <numericValue>
5.26

$$$$
>  <sequenceEntry>
GLFNSDRVNQWPPGPCRDYV

>  <endpointLabel>
amyloid nucleation score

>  <numericValue>
0.5

$$$$
>  <sequenceEntry>
VVLCGDCFSLSLFWDCLWPF

>  <endpointLabel>
amyloid nucleation score

>  <numericValue>
4.38

$$$$
>  <sequenceEntry>
VIILPGGVCMMVC

>  <endpointLabel>
amyloid nucleation score

>  <numericValue>
0.843

$$$$
>  <sequenceEntry>
CYKVFPVVSYKVGGASLTAR

>  <endpointLabel>
amyloid nucleation score

>  <numericValue>
0.105

$$$$
>  <sequenceEntry>
RVVRSATADITACMSLNIYR

>  <endpointLabel>
amyloid nucleation score

>  <numericValue>
0.879

$$$$
>  <sequenceEntry>
LYLEGINVFSVMLHEVLHTG

>  <endpointLabel>
amyloid nucleation score

>  <numericValue>
-0.052

$$$$
>  <sequenceEntry>
RLIFEVFYLTFRVLT

>  <endpointLabel>
amyloid nucleation score

>  <numericValue>
-0.457

$$$$
>  <sequenceEntry>
LSVGKKDS

>  <endpointLabel>
amyloid nucleation score

>  <numericValue>
-0.292

$$$$
>  <sequenceEntry>
GSHIVLSSFFGMLMLWGVDP

>  <endpointLabel>
amyloid nucleation score

>  <numericValue>
0.56

$$$$
>  <sequenceEntry>
LMTLLSSLSPAQSSLPT

>  <endpointLabel>
amyloid nucleation score

>  <numericValue>
1.27

$$$$

Origin of values: the supplement of paper PMC12042874
